biological target: Urease subunit alpha/Urease subunit beta (Helicobacter pylori (strain ATCC 700392 / 26695) (Campylobacterpylori), UniProt P69996); assay: Inhibition of urease in Helicobacter pylori J99 in Brucella broth using urea as substrate preincubated for 2 hrs followed by substrate addition measured after 2 hrs by Berthelot assay; assay type: protein-complex assay
Sequence (P69996 whole entry): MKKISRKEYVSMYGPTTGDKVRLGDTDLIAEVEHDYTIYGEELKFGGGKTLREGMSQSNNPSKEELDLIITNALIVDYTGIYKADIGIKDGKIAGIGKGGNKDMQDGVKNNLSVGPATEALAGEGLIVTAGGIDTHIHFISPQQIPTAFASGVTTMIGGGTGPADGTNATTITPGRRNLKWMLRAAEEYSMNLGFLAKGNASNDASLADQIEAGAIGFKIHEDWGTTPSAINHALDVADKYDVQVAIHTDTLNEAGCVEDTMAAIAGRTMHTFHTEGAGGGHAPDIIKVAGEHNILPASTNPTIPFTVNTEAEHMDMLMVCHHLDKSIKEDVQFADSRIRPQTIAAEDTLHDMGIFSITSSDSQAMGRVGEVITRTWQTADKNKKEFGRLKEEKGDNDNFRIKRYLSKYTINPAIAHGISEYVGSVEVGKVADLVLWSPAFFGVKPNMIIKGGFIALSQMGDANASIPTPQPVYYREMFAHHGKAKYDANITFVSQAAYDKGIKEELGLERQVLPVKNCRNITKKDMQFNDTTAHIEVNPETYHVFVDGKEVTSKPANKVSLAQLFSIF
Sequence (P14916 whole entry, further chain): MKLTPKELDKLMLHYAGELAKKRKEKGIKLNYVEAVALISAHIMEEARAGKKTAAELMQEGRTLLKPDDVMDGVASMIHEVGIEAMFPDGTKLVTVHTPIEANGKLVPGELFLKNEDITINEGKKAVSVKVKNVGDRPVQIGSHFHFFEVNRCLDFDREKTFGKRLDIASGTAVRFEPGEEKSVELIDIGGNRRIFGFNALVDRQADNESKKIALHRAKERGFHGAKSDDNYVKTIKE
IC50 for assorted compounds
MEASURE NAME: IC50 (µM)

1. C[C@H](NC(=O)c1ccccc1[Se][Se]c1ccccc1C(=O)N[C@@H](C)C(=O)O)C(=O)O: 183
2. COC(=O)[C@H](CC(C)C)n1[se]c2ccccc2c1=O: 3.3
3. CC(C)C[C@@H](C(=O)O)n1[se]c2ccccc2c1=O: 69.5
4. COC(=O)Cn1[se]c2ccccc2c1=O: 2.12
5. CC(C)[C@@H](C(=O)O)n1[se]c2ccccc2c1=O: 25.4
6. C[C@@H](C(=O)O)n1[se]c2ccccc2c1=O: 611
